Quick reference for MIC among some molecules
tested on: Candida albicans; assay: microbe, parasite or virus in culture; details: ATCC 90028, ASSAY_TEST Inhibition of Fungal Growth, detection method Absorption (OD530), plate type 384well, NBS, CORNING #3640
Description: Antifungal activity against Candida albicans ATCC 90028 (CO-ADD:FG_001); MIC in YNB media using NBS plates, by OD630
Reply numerically in µg/mL, unit not repeated.

Molecule | Unit symbol | MIC
CC(=O)O[C@H]1C[C@@]2(C)C(C[C@@H](O)C3[C@@]4(C)CC[C@@H](OC(=O)CN)[C@@H](C)C4CC[C@@]32C)/C1=C(\CCC=C(C)C)C(=O)OCc1ccccc1 (stereo not given in full) | µg/mL | 32

Requested field: MIC. Item: CC(=O)O[C@H]1C[C@@]2(C)C(C[C@@H](O)C3[C@@]4(C)CC[C@@H](OC(=O)CCCCCN)[C@@H](C)C4CC[C@@]32C)/C1=C(\CCC=C(C)C)C(=O)OCc1ccccc1 (stereo not given in full)
32

====

test system: Candida albicans; assay: microbe, parasite or virus in culture; settings: ATCC 90028, ASSAY_TEST Inhibition of Fungal Growth, detection method Absorption (OD530), plate type 384well, NBS, CORNING #3640
Reported property: MIC

Compound | MIC
CC(=O)O[C@H]1C[C@@]2(C)C(C[C@@H](O)C3[C@@]4(C)CC[C@@H](O)[C@@H](C)C4CC[C@@]32C)/C1=C(\CCC=C(C)C)C(=O)O (stereo partly drawn) | > 32 µg/mL
CCN/C(=N\CCCN(C)C)OC(=O)/C(CCC=C(C)C)=C1/C2C[C@@H](O)C3[C@@]4(C)CC[C@@H](O)[C@@H](C)C4CC[C@]3(C)[C@@]2(C)C[C@@H]1OC(C)=O (stereo partly drawn) | > 32 µg/mL

Sample CC(=O)O[C@H]1C[C@@]2(C)C(C[C@@H](O)C3[C@@]4(C)CC[C@@H](O)[C@@H](C)C4CC[C@@]32C)/C1=C(\CCC=C(C)C)C(=O)On1nnc2ccc(Cl)cc21 (stereo partly drawn) — what was its MIC?
> 32 µg/mL

====

Form field: MIC (one value per entry).
system: Staphylococcus aureus; assay: microbe, parasite or virus in culture; settings: ATCC 43300, 18 h, ASSAY_TEST Inhibition of Bacterial Growth, detection method Absorption (OD600), MEDIA CAMHB, plate type 384well, NBS, CORNING #3640
Description: Antibacterial activity against Staphylococcus aureus MRSA ATCC 43300 (CO-ADD:GP_020); MIC in CAMBH media, using NBS plates, by OD(600)
Lab book: enter the figure in µg/mL, no units written.

Compound | Result
CC(=O)O[C@H]1C[C@@]2(C)C(C[C@@H](O)C3[C@@]4(C)CC[C@@H](OC(=O)CCCCCN)[C@@H](C)C4CC[C@@]32C)/C1=C(\CCC=C(C)C)C(=O)OCc1ccccc1 (stereo partly drawn) | 16

If you can, please state the reported MIC value of CC(=O)O[C@H]1C[C@@]2(C)C(C[C@@H](O)C3[C@@]4(C)CC[C@@H](O)[C@@H](C)C4CC[C@@]32C)/C1=C(\CCC=C(C)C)C(=O)O/C(=N/C1CCCCC1)NC1CCCCC1 (stereo partly drawn) .
32

====

system: Staphylococcus aureus; experiment: microbe, parasite or virus in culture; settings: ATCC 43300, 18 h, ASSAY_TEST Inhibition of Bacterial Growth, detection method Absorption (OD600), MEDIA CAMHB, plate type 384well, NBS, CORNING #3640
Items are presented alongside their recorded MIC.
Numbers only; they are read as µg/mL.

Molecule | Target under test | Reported property | Result
CCN/C(=N\CCCN(C)C)OC(=O)/C(CCC=C(C)C)=C1/C2C[C@@H](O)C3[C@@]4(C)CC[C@@H](O)[C@@H](C)C4CC[C@]3(C)[C@@]2(C)C[C@@H]1OC(C)=O (stereo not given in full) | Staphylococcus aureus | MIC | 8

Look up MIC: CC(=O)O[C@H]1C[C@@]2(C)C(C[C@@H](O)C3[C@@]4(C)CC[C@@H](OC(=O)c5ccccc5C(=O)O)[C@@H](C)C4CC[C@@]32C)/C1=C(\CCC=C(C)C)C(=O)OCc1ccccc1 (stereo not given in full)
32

====

Overview of recorded MIC for various compounds
tested on: Candida albicans; assay: microbe, parasite or virus in culture; settings: ATCC 90028, ASSAY_TEST Inhibition of Fungal Growth, detection method Absorption (OD530), plate type 384well, NBS, CORNING #3640

Compound | Reported property | Result
CC(=O)O[C@H]1C[C@@]2(C)C(C[C@@H](O)C3[C@@]4(C)CC[C@@H](O)[C@@H](C)C4CC[C@@]32C)/C1=C(\CCC=C(C)C)C(=O)O/C(=N/C1CCCCC1)NC1CCCCC1 (stereo partly drawn) | MIC | > 32 mg/L
CC(=O)O[C@H]1C[C@@]2(C)C(C[C@@H](O)C3[C@@]4(C)CC[C@@H](OC(=O)c5ccccc5C(=O)O)[C@@H](C)C4CC[C@@]32C)/C1=C(\CCC=C(C)C)C(=O)OCc1ccccc1 (stereo partly drawn) | MIC | > 32 mg/L

Please turn your attention to the following entry.
If you can, please state the reported MIC value of CC(=O)O[C@H]1C[C@@]2(C)C(C[C@@H](O)C3[C@@]4(C)CC[C@@H](OC(=O)C(N)Cc5ccccc5)[C@@H](C)C4CC[C@@]32C)/C1=C(\CCC=C(C)C)C(=O)OCc1ccccc1 (stereo partly drawn) .
> 32 mg/L

====

tested on: Staphylococcus aureus; test: microbe, parasite or virus in culture; settings: ATCC 43300, 18 h, ASSAY_TEST Inhibition of Bacterial Growth, detection method Absorption (OD600), MEDIA CAMHB, plate type 384well, NBS, CORNING #3640
// values below are reported MIC

GET /values?readout=MIC&system=Staphylococcus aureus&item= CC(=O)O[C@H]1C[C@@]2(C)C(C[C@@H](O)C3[C@@]4(C)CC[C@@H](OC(=O)CN)[C@@H](C)C4CC[C@@]32C)/C1=C(\CCC=C(C)C)C(=O)OCc1ccccc1 (stereo partly drawn)
> 32 µg/mL

Then CC(=O)O[C@H]1C[C@@]2(C)C(C[C@@H](O)C3[C@@]4(C)CC[C@@H](OC(=O)C(N)Cc5ccccc5)[C@@H](C)C4CC[C@@]32C)/C1=C(\CCC=C(C)C)C(=O)OCc1ccccc1 (stereo partly drawn) ?
> 32 µg/mL

For CC(=O)O[C@H]1C[C@@]2(C)C(C[C@@H](O)C3[C@@]4(C)CC[C@@H](O)[C@@H](C)C4CC[C@@]32C)/C1=C(\CCC=C(C)C)C(=O)O (stereo partly drawn) then?
≤ 0.25 µg/mL
